System: Plasmodium falciparum
testMethodNotes: Antimalarial activity against Plasmodium falciparum assessed as increase in 1N ring or trophozoite stage parasites at 2 times IC50 after 72 hrs by FITC-SYBR Green I-based flow cytometry
Type: functional, organism-based
Activity calls are given as the source filed them. The calls are words filed in the database; no cut-off is given here.
Mark one answer only. Choices: yes (1) (active), no (0) (inactive)

How did this test come out for Cl.Cl.O=C(NCCCNCCCCCCCNCCCNC(=O)NCCC(c1ccccc1)c1ccccc1)NCCC(c1ccccc1)c1ccccc1 ?
yes (1)

Status in this test for Cl.Cl.S=C(NCCCNCCCCCCNCCCNC(=S)NC(c1ccccc1)c1ccccc1)NC(c1ccccc1)c1ccccc1 ?
yes (1)

Can you look up the reported call for Cl.Cl.O=C(NCCCNCCCCCCNCCCNC(=O)Nc1ccccc1)Nc1ccccc1 for me?
yes (1)

Per the assay record, what outcome was assigned to Cl.Cl.S=C(NCCCNCCCCCCNCCCNC(=S)NCc1ccccc1)NCc1ccccc1 ?
yes (1)

Tell me the assay call for Cl.Cl.S=C(NCCCNCCCCCCCNCCCNC(=S)NCCC(c1ccccc1)c1ccccc1)NCCC(c1ccccc1)c1ccccc1 please.
yes (1)

Hi, do you know how Cl.Cl.S=C(NCCCNCCCCNCCCNC(=S)NCc1ccccc1)NCc1ccccc1 came out in this test?
no (0)

Write down the call the test reported for this molecule. Item: Cl.Cl.O=C(NCCCNCCCCCCCNCCCNC(=O)NCC(c1ccccc1)c1ccccc1)NCC(c1ccccc1)c1ccccc1
yes (1)

Outcome logged for S=C(NCCCNCCCCNCCCNC(=S)NCC(c1ccccc1)c1ccccc1)NCC(c1ccccc1)c1ccccc1 in this assay:
yes (1)

Check the results log: what was the call for Cl.Cl.O=C(NCCCNCCCCCCCNCCCNC(=O)NC(c1ccccc1)c1ccccc1)NC(c1ccccc1)c1ccccc1 ?
yes (1)

Call for entry Cl.Cl.S=C(NCCCNCCCCCCCNCCCNC(=S)NCC(c1ccccc1)c1ccccc1)NCC(c1ccccc1)c1ccccc1 :
yes (1)

====

Answer each item with its documented pIC50.
Tested on: Plasmodium falciparum
testMethodNotes: Antimalarial activity against […] Plasmodium falciparum HB3 infected in human erythrocytes after 96 hrs by SYBR Green I-based fluorescence assay
Type: functional, organism-based
assayConditions: HB3, 96 h
One number for each entry, as −log10 of the molar value.

Some solved cases for reference:
> print(dat)
                             chemicalsmiles                 system  valuemeasured
1  S=C(NCCCNCCCCNCCCNC(=S)NCCC(c1ccccc1)c1ccccc1)NCCC(c1ccccc1)c1ccccc1  Plasmodium falciparum           5.99
2  Cl.Cl.S=C(NCCCNCCCCCCCNCCCNC(=S)NCCC(c1ccccc1)c1ccccc1)NCCC(c1ccccc1)c1ccccc1  Plasmodium falciparum           6.59
3  N=C(NCCCNCCCCCCCNCCCNC(=N)NC(=N)NCCC(c1ccccc1)c1ccccc1)NC(=N)NCCC(c1ccccc1)c1ccccc1  Plasmodium falciparum           6.65

Which pIC50 reading was recorded for the compound S=C(NCCCNCCCCCCCNCCCNC(=S)NC(c1ccccc1)c1ccccc1)NC(c1ccccc1)c1ccccc1 ?
6.86

====

Tested on: Plasmodium falciparum
testMethodNotes: Antimalarial activity against […] Plasmodium falciparum HB3 infected in human erythrocytes after 96 hrs by SYBR Green I-based fluorescence assay
Format: functional, organism-based
assayConditions: HB3, 96 h
Lab note: anything with IC50 below 800 nM is marked class 1; values at 800 nM or higher are marked class 0.

Check out these entries, answers already filled in.
> print(dat)
                             chemicalsmiles                 system  classification
1                 CC(=N)NCCCNCCCNCCCNC(C)=N  Plasmodium falciparum         class 0
2  S=C(NCCCNCCCNCCCNC(=S)NCCC(c1ccccc1)c1ccccc1)NCCC(c1ccccc1)c1ccccc1  Plasmodium falciparum         class 0
3  O=C(NCCCNCCCCNCCCNC(=O)NCc1ccccc1)NCc1ccccc1  Plasmodium falciparum         class 0

Read the next record carefully.
Here's an entry: S=C(NCCCNCCCCNCCCNC(=S)NCC(c1ccccc1)c1ccccc1)NCC(c1ccccc1)c1ccccc1 . Is its IC50 below 800 nM?
class 1

====

Provide the recorded Selectivity Index for the entries that follow.
testMethodNotes: Selectivity index, ratio of GI50 for human HepG2 cells to IC50 for Plasmodium falciparum 3D7
Assay type: functional
Numbers only.

> print(dat)
                             chemicalsmiles  valuemeasured
1  Cl.Cl.O=C(NCCCNCCCCCCCNCCCNC(=O)NCC(c1ccccc1)c1ccccc1)NCC(c1ccccc1)c1ccccc1            338
2  Cl.Cl.O=C(NCCCNCCCCCCCNCCCNC(=O)NCCC(c1ccccc1)c1ccccc1)NCCC(c1ccccc1)c1ccccc1            166
3  Cl.Cl.S=C(NCCCNCCCCCCCNCCCNC(=S)NCCC(c1ccccc1)c1ccccc1)NCCC(c1ccccc1)c1ccccc1             97

// switching to the query compound
// Selectivity Index lookup, key: Cl.Cl.O=C(NCCCNCCCCCCNCCCNC(=O)Nc1ccccc1)Nc1ccccc1
7038

====

Test system: Plasmodium falciparum
testMethodNotes: Antimalarial activity against Plasmodium falciparum assessed as reduction in >2N schizont stage parasites at 2 times IC50 after 72 hrs by FITC-SYBR Green I-based flow cytometry
Assay type: functional, organism-based
The source made the active and inactive calls. The rule behind the calls is not given here.
API: response.call in active, inactive

Reference set (9 entries):
> print(dat)
                             chemicalsmiles  classification
1  Cl.Cl.O=C(NCCCNCCCCCCNCCCNC(=O)Nc1ccccc1)Nc1ccccc1          active
2  Cl.Cl.O=C(NCCCNCCCCCCCNCCCNC(=O)NCCC(c1ccccc1)c1ccccc1)NCCC(c1ccccc1)c1ccccc1          active
3  Cl.Cl.S=C(NCCCNCCCCNCCCNC(=S)NCc1ccccc1)NCc1ccccc1        inactive
4  S=C(NCCCNCCCCNCCCNC(=S)NCC(c1ccccc1)c1ccccc1)NCC(c1ccccc1)c1ccccc1          active
5  Cl.Cl.S=C(NCCCNCCCCCCCNCCCNC(=S)NCCC(c1ccccc1)c1ccccc1)NCCC(c1ccccc1)c1ccccc1          active
6  Cl.Cl.S=C(NCCCNCCCCCCNCCCNC(=S)NCc1ccccc1)NCc1ccccc1          active
7  Cl.Cl.S=C(NCCCNCCCCCCCNCCCNC(=S)NCC(c1ccccc1)c1ccccc1)NCC(c1ccccc1)c1ccccc1          active
8  Cl.Cl.O=C(NCCCNCCCCCCCNCCCNC(=O)NC(c1ccccc1)c1ccccc1)NC(c1ccccc1)c1ccccc1          active
9  Cl.Cl.O=C(NCCCNCCCCCCCNCCCNC(=O)NCC(c1ccccc1)c1ccccc1)NCC(c1ccccc1)c1ccccc1          active

Kindly consider the entry below.
Call for entry Cl.Cl.S=C(NCCCNCCCCCCNCCCNC(=S)NC(c1ccccc1)c1ccccc1)NC(c1ccccc1)c1ccccc1 :
active

====

System: HepG2
testMethodNotes: Cytotoxicity against human HepG2 cells after 48 hrs by lactate dehydrogenase assay
Type: cell-based
assayConditions: hepg2, 48 h
With a cut-off of 30 µM, any GI50 strictly below it is called TRUE; any GI50 meeting it or above is called FALSE.

Solved entries:
> print(dat)
                             chemicalsmiles  classification
1  Cl.Cl.O=C(NCCCNCCCCCCCNCCCNC(=O)NC(c1ccccc1)c1ccccc1)NC(c1ccccc1)c1ccccc1           FALSE
2  Cl.Cl.S=C(NCCCNCCCCCCNCCCNC(=S)NC(c1ccccc1)c1ccccc1)NC(c1ccccc1)c1ccccc1           FALSE
3  Cl.Cl.S=C(NCCCNCCCCNCCCNC(=S)NCc1ccccc1)NCc1ccccc1           FALSE

Is the reported GI50 for S=C(NCCCNCCCCNCCCNC(=S)NCC(c1ccccc1)c1ccccc1)NCC(c1ccccc1)c1ccccc1 strictly below 30 µM?
TRUE

Problem: For the compound Cl.Cl.S=C(NCCCNCCCCCCNCCCNC(=S)NCc1ccccc1)NCc1ccccc1 , is GI50 under 30 µM?
FALSE

====

System: Plasmodium falciparum
testMethodNotes: Antimalarial activity against […] Plasmodium falciparum HB3 infected in human erythrocytes after 96 hrs by SYBR Green I-based fluorescence assay
Assay type: functional, organism-based
assayConditions: HB3, 96 h
Could you please report measured pIC50 for the items listed next?
Give bare numbers, as −log10 of the molar value.

The cases that follow already have their pIC50 on record.
> print(dat)
                             chemicalsmiles  valuemeasured
1  O=C(NCCCNCCCCNCCCNC(=O)NCCC(c1ccccc1)c1ccccc1)NCCC(c1ccccc1)c1ccccc1           6.29
2                CC(=N)NCCCNCCCCNCCCNC(C)=N           4.85
3  S=C(NCCCNCCCNCCCNC(=S)NC(c1ccccc1)c1ccccc1)NC(c1ccccc1)c1ccccc1           6.12

Batch lookup, pIC50 per entry.
1. S=C(NCCCNCCCNCCCNC(=S)NCC(c1ccccc1)c1ccccc1)NCC(c1ccccc1)c1ccccc1
2. S=C(NCCCNCCCCNCCCNC(=S)NC(c1ccccc1)c1ccccc1)NC(c1ccccc1)c1ccccc1
3. CC(=N)NCCCNCCCCCCCNCCCNC(C)=N

6.15
6.50
4.15

Which pIC50 is listed for Cl.Cl.O=C(NCCCNCCCCCCCNCCCNC(=O)NCCC(c1ccccc1)c1ccccc1)NCCC(c1ccccc1)c1ccccc1 ?
6.70
